- Tested on: Female, Sprague-Dawley rats
- Setup conditions: SC, total daily dose 100 μg/rat, Rx days 1-7 post coitus
Counter-ions that a name gives are not always drawn.
Measurement name: % inhibition of Pregnancy

[[record]]
molecule = "CCNC(=O)[C@@H]1CCCN1C(=O)[C@H](CCCNC(=N)N)NC(=O)[C@H](CC(C)C)NC(=O)[C@@H](C)NC(=O)[C@H](Cc1ccc(O)cc1)NC(=O)[C@H](CO)NC(=O)[C@H](Cc1c[nH]c2ccccc12)NC(=O)[C@H](Cc1c[nH]cn1)NC(=O)[C@@H]1CCC(=O)N1"
value_observed = "100%"


Prompt: Identify measured % inhibition of Pregnancy associated with CCNC(=O)[C@@H]1CCCN1C(=O)[C@H](CCCNC(=N)N)NC(=O)[C@H](CC(C)C)NC(=O)[C@@H](CC)NC(=O)[C@H](Cc1ccc(O)cc1)NC(=O)[C@H](CO)NC(=O)[C@H](Cc1c[nH]c2ccccc12)NC(=O)[C@H](Cc1c[nH]cn1)NC(=O)[C@@H]1CCC(=O)N1
Completion: 100%

Prompt: Identify measured % inhibition of Pregnancy associated with CC(C)C[C@H](NC(=O)C(C)(C)NC(=O)[C@H](Cc1ccc(O)cc1)NC(=O)[C@H](CO)NC(=O)[C@H](Cc1c[nH]c2ccccc12)NC(=O)[C@H](Cc1c[nH]cn1)NC(=O)[C@@H]1CCC(=O)N1)C(=O)N[C@@H](CCCNC(=N)N)C(=O)N1CCC[C@H]1C(=O)NCC(N)=O [[2-methyl-Ala^6]LRH, acetate salt]
Completion: 75%

Prompt: Identify measured % inhibition of Pregnancy associated with CC(C)C[C@H](NC(=O)CNC(=O)[C@H](Cc1ccc(O)cc1)NC(=O)[C@H](CO)NC(=O)[C@H](Cc1c[nH]c2ccccc12)NC(=O)[C@H](Cc1cnc[nH]1)NC(=O)[C@@H]1CCC(=O)N1)C(=O)N[C@@H](CCCNC(=N)N)C(=O)N1CCC[C@H]1C(=O)NCC(N)=O [LRH, reference compound]
Completion: 100%
